Values from patent US9345244B2

Reported melting point is given for each of the following molecules.

Solved cases below.
smiles-data: COC(=O)CCC(=O)Nc1ccc(-c2nnn[nH]2)cn1
melting point: 246 to 248 °C
//
smiles-data: N#Cc1cc(I)cnc1NC(=O)CCC(=O)O
melting point: 215 to 218 °C
//
smiles-data: COC(=O)C(C)(C)CC(=O)Nc1ccc(C#N)cn1
melting point: 129 °C
//
smiles-data: N#Cc1ccc(NC(=O)CCC(=O)O)nc1
melting point: 220 to 221 °C

State, in one line, measured melting point of `COC(=O)CCC(=O)Nc1ccc(C#N)cn1`
161 to 164 °C
